System: Brassica napus
Assay: Post-emergence herbicidal activity against Brassica napus (oilseed rape) after 10 days
Assay type: functional
Record form. Attribute: log10 LD90. Fill in for each entry.
Scale type: logarithmic (base 10). Underlying LD90 unit: g/ha.

CC/C(NCc1ccc(OCc2cnc(Cl)s2)cc1)=C(\C#N)C(=O)OCCOC ... 2.81
COCCOC(=O)/C(C#N)=C(\NCc1ccc(OCc2cnc(Cl)s2)cc1)C(C)C ... 2.16
CCOCCOC(=O)/C(C#N)=C(\NCc1ccc(OCc2cnc(Cl)s2)cc1)C(C)C ... 2.27
CCOCCOC(=O)/C(C#N)=C(\NCc1ccc(OCc2cnc(Cl)s2)c(OC)c1)C(C)C ... 2.69
CCOCCOC(=O)/C(C#N)=C(\NCc1ccc(OCc2cnc(Cl)s2)c(OC)c1)SC ... 3.41

Look up log10 LD90 for the entries below, preserving their order.
1. CCOCCOC(=O)/C(C#N)=C(/CC)NCc1ccc(OCc2cnc(Cl)s2)cc1
2. COCCOC(=O)/C(C#N)=C(\NCc1ccc(OCc2cnc(Cl)s2)c(OC)c1)C(C)C
3. CC/C(NCc1ccc(OCc2cnc(Cl)s2)c(OC)c1)=C(\C#N)C(=O)OCCOC
4. CCOCCOC(=O)/C(C#N)=C(/CC)NCc1ccc(OCc2cnc(Cl)s2)c(OC)c1
5. CCOCCOC(=O)/C(C#N)=C(\NCc1ccc(OCc2cnc(Cl)s2)cc1)SC
6. CCOCCOC(=O)/C(C#N)=C(\NCc1ccc(Cl)nc1)SC

Data returned:
[2.49, 2.40, 2.91, 2.94, 2.30, 2.13]

Just for reference, ChEMBL document CHEMBL3044764 is where these values come from.
